We begin with a simple list: items and their reported normalized growth.
protocol.notes: chemical genetic growth profiling, strain panel (AID 1159580);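 further: tested at 20 µM; growth read once vehicle control cultures reached saturation at 30 °C; 1 = growth at the plate median or of vehicle wells; lower values mean less growth of the strain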
setup.conditions: S. cerevisiae deletion strains, growth OD, locus YOR231W, strain MKK1, hits give low values
Hit rate of the full screen: of about 5,500 compounds, about 2,000 (36%) were called active. Another 18% or so got no clear call; they are omitted. The list shows a part of the results.
measurement.type: normalized growth

compound=NC(=O)N1c2ccccc2C=Cc2ccccc21 value=1
compound="C=C(C)[C@@H]1CC[C@]2(C)CC[C@]3(C)[C@@H](CCC4[C@@]5(C)CC[C@H](O)C(C)(C)C5CC[C@]43C)C12 (stereo partly specified)" value=0.99
compound=CNS(=O)(=O)c1ccc(NC(=O)c2ccccc2C(=O)O)cc1 value=0.991
compound=CN(C(=O)C(Cl)Cl)c1ccc(OC(=O)c2ccco2)cc1 value=0.975
compound=COc1cc2cc3c4cc(OC)c(OC)cc4cc[n+]3c(C)c2cc1OC value=0.983
compound="C=C(C)[C@@H]1CC[C@]2(CO)CC[C@]3(C)[C@H](CCC4[C@@]5(C)CC[C@H](O)C(C)(C)C5CC[C@]43C)C12 (stereo partly specified)" value=0.995

###

protocol.notes: chemical genetic growth profiling, strain panel (AID 1159580)
setup.conditions: S. cerevisiae deletion strains, growth OD, locus YBR135W, strain CKS1, hits give low values
The campaign covered roughly 5,500 compounds. About 2,000 (36%) were called active. Another 18% or so got no clear call; they are omitted. The list shows a part of the results.
We begin with a simple list: items and their reported normalized growth.
measurement.type: normalized growth

compound="OC(CSc1ccccc1)CN1CCN(c2nc(-c3ccccc3)ns2)CC1 (stereo not given)" value=0.993
compound=O=c1c(-c2ccccc2)c(O)c2cccc3c4c(n1c23)CCCC4 value=0.926
compound=CC(C)(C)C(=O)c1sc2sc(C(=O)C(C)(C)C)c(N)c2c1N value=0.984
compound=N#C/C(=N/Nc1cccc(C(F)(F)F)c1)C(=O)c1csc(-c2cccnc2)n1 value=0.955
compound=CC(=O)c1ccccc1C(=O)c1ccc(C(C)(C)C)cc1 value=0.957

###

We begin with a simple list: items and their reported normalized growth.
protocol.notes: chemical genetic growth profiling, strain panel (AID 1159580);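 further: tested at 20 µM; growth read once vehicle control cultures reached saturation at 30 °C; 1 = growth at the plate median or of vehicle wells; lower values mean less growth of the strain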
setup.conditions: S. cerevisiae deletion strains, growth OD, locus YKL160W, strain elf1, hits give low values
Out of some 5,500 compounds screened, about 2,000 (36%) were called active. Roughly 18% stayed inconclusive and do not appear here. Some of the results follow.
measurement.type: normalized growth

compound="CC(=O)OCC1=C(C(=O)O)N2C(=O)[C@@H](NC(=O)CCCC(N)C(=O)O)C2SC1 (stereo partly drawn)" measurement_type="normalized growth" value="0.998 (inactive)"
compound=NCCc1cc(O)c(O)cc1O measurement_type="normalized growth" value="0.945 (inactive)"
compound=Cc1ccc(N(CC2=NCCN2)c2cccc(O)c2)cc1 measurement_type="normalized growth" value="1.01 (inactive)"
compound=O=C(O)c1cc(=O)c2cccc(O)c2[nH]1 measurement_type="normalized growth" value="1.05 (inactive)"
compound=O=C(CCBr)N1CCN(C(=O)CCBr)CC1 measurement_type="normalized growth" value="1.03 (inactive)"
compound=O=C(OC[C@H]1O[C@H](OC(=O)c2cc(O)c(O)c(OC(=O)c3cc(O)c(O)c(O)c3)c2)[C@H](OC(=O)c2cc(O)c(O)c(OC(=O)c3cc(O)c(O)c(O)c3)c2)[C@@H](OC(=O)c2cc(O)c(O)c(OC(=O)c3cc(O)c(O)c(O)c3)c2)[C@@H]1OC(=O)c1cc(O)c(O)c(OC(=O)c2cc(O)c(O)c(O)c2)c1)c1cc(O)c(O)c(OC(=O)c2cc(O)c(O)c(O)c2)c1 measurement_type="normalized growth" value="0.761 (active)"
compound="C1CCC(C(CC2CCCCN2)C2CCCCC2)CC1 (stereo not drawn)" measurement_type="normalized growth" value="0.952 (inactive)"
compound=CC1=C(O)C(=O)C=C2C1=CC=C1[C@@]2(C)CC[C@@]2(C)[C@@H]3C[C@](C)(C(=O)O)CC[C@]3(C)CC[C@]12C measurement_type="normalized growth" value="0.541 (active)"
compound="CN1C(=O)CCS(=O)(=O)C1c1ccc(Cl)cc1 (stereo not drawn)" measurement_type="normalized growth" value="1.02 (inactive)"
compound=NC(=O)N1c2ccccc2C=Cc2ccccc21 measurement_type="normalized growth" value="1.03 (inactive)"
compound=O=C1c2ccccc2C(=O)C1c1ccccc1 measurement_type="normalized growth" value="1 (inactive)"
compound=CC(=O)Oc1ccccc1C(=O)O measurement_type="normalized growth" value="0.971 (inactive)"
compound=CCOc1ccc(C(=O)c2cc(O)c(OC)c(OC)c2O)cc1 measurement_type="normalized growth" value="0.966 (inactive)"
compound=O=C(O)[C@H](O)[C@@](O)(Cc1ccc(O)cc1)C(=O)O measurement_type="normalized growth" value="1.01 (inactive)"
compound="CNC(Cc1c[nH]c2ccccc12)C(=O)O (stereo not drawn)" measurement_type="normalized growth" value="0.973 (inactive)"
compound="NC1C[C@H]1c1ccccc1 (stereo partly drawn)" measurement_type="normalized growth" value="0.964 (inactive)"
compound=COc1cc(-c2coc3cc(O[C@@H]4O[C@H](CO)[C@@H](O)[C@H](O)[C@H]4O)c(OC)c(O)c3c2=O)cc(O)c1OC measurement_type="normalized growth" value="0.993 (inactive)"
compound=Cc1c(NC(=O)c2cccnc2)c(=O)n(-c2ccccc2)n1C measurement_type="normalized growth" value="1.02 (inactive)"
compound=CC(=O)OC[C@H]1O[C@@H](Oc2cc(OC(C)=O)c3c(=O)cc(-c4ccc(OC(C)=O)cc4)oc3c2)[C@H](OC(C)=O)[C@@H](OC(C)=O)[C@@H]1OC(C)=O measurement_type="normalized growth" value="1.02 (inactive)"
compound=COc1c2ccoc2cc2oc(C)cc(=O)c12 measurement_type="normalized growth" value="0.993 (inactive)"
compound=CC(=O)N[C@@H](Cc1c[nH]c2ccccc12)C(=O)O measurement_type="normalized growth" value="0.962 (inactive)"
compound="C=C(C)[C@@H]1CC[C@]2(CO)CC[C@]3(C)[C@H](CCC4[C@@]5(C)CC[C@H](O)C(C)(C)C5CC[C@]43C)C12 (stereo partly drawn)" measurement_type="normalized growth" value="1.03 (inactive)"
compound=COc1c2occc2c(OC)c2c(=O)cc(C)oc12 measurement_type="normalized growth" value="0.963 (inactive)"
compound=CC(=O)[O][Hg][c]1ccccc1 measurement_type="normalized growth" value="0.0629 (active)"
compound=CN1CCN(CC(=O)N2c3ccccc3C(=O)Nc3cccnc32)CC1 measurement_type="normalized growth" value="1.01 (inactive)"
compound=COc1ccc(C2C(=O)c3ccccc3C2=O)cc1 measurement_type="normalized growth" value="0.998 (inactive)"
compound=CCOc1ccc(C(=O)c2ccc(OC)c(O)c2O)cc1 measurement_type="normalized growth" value="0.951 (inactive)"
compound=Cc1cc(C(C)(C)C)c(O)c(C)c1CC1=NCCN1 measurement_type="normalized growth" value="1.02 (inactive)"
compound=COc1ccc2c(=O)ccoc2c1 measurement_type="normalized growth" value="1.02 (inactive)"
compound=NC(N)=NC(N)=Nc1ccccc1 measurement_type="normalized growth" value="0.991 (inactive)"
compound=O=C(CCc1ccc(O)cc1)c1c(O)cc(O)cc1O[C@@H]1O[C@H](CO)[C@@H](O)[C@H](O)[C@H]1O measurement_type="normalized growth" value="1.01 (inactive)"
compound="O=c1[nH]cnc2c1ncn2C1O[C@H](CO)[C@@H](O)[C@H]1O (stereo partly drawn)" measurement_type="normalized growth" value="0.986 (inactive)"
compound="CC(NCCC(c1ccccc1)c1ccccc1)c1ccccc1 (stereo not drawn)" measurement_type="normalized growth" value="0.908 (inactive)"

###

protocol.notes: chemical genetic growth profiling, strain panel (AID 1159580);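 further: tested at 20 µM; growth read once vehicle control cultures reached saturation at 30 °C; 1 = growth at the plate median or of vehicle wells; lower values mean less growth of the strain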
setup.conditions: S. cerevisiae deletion strains, growth OD, locus YDR001C, strain nth1, hits give low values
The campaign covered roughly 5,500 compounds. About 2,000 (36%) were called active. Inconclusive results (about 18%) are left out. Some of the results follow.
We begin with a simple list: items and their reported normalized growth.
measurement.type: normalized growth

compound=COc1cccc(OC)c1C(=O)N[C@@H]1C(=O)N2[C@@H]1SC(C)(C)[C@@H]2C(=O)O measurement_type="normalized growth" value=1
compound=COc1ccc(C2C(=O)c3ccccc3C2=O)cc1 measurement_type="normalized growth" value=0.964
compound="NC1C[C@H]1c1ccccc1 (some centres undefined)" measurement_type="normalized growth" value=0.985
compound=COC(=O)[C@]1(C)CC[C@]2(C)CC[C@]3(C)C4=CC=C5C(=CC(=O)C(O)=C5C)[C@]4(C)CC[C@@]3(C)[C@@H]2C1 measurement_type="normalized growth" value=0.922

###

protocol.notes: chemical genetic growth profiling, strain panel (AID 1159580);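 further: tested at 20 µM; growth read once vehicle control cultures reached saturation at 30 °C; 1 = growth at the plate median or of vehicle wells; lower values mean less growth of the strain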
setup.conditions: S. cerevisiae deletion strains, growth OD, locus YCL029C, strain bik1
Among all 5,500 compounds or so, about 2,000 (36%) were called active. Not shown: some 18% with an inconclusive outcome. No stated cut-off is given here; in the data, active means normalized growth mostly below about 0.91 (no sharp cut-off); inconclusive means no clear call, values can overlap the other calls; inactive means mostly above about 0.92. The list shows a part of the results. Where a SMILES comes first, the peptide text is derived from it. Side-chain parts run from the residue outwards. [ ]: non-standard residue; d: D form. The star is where a group is joined. X1 = CCC(C)C(N)C1=NC(C(=O)*)CS1; Orn = NCCC[CH](N)C(=O)O
Possible outcomes: 1 (yes) = active, 0 (no) = inactive

molecule="CN1C(=O)CCS(=O)(=O)C1c1ccc(Cl)cc1 (stereo unspecified)" assigned_class="0 (no)"
molecule=CCOc1ccc(NC(C)=O)cc1 assigned_class="0 (no)"
molecule="COc1c2c(cc3c1OCO3)C13C=C[C@H](OC)CC1N(C2)CC3O (stereo partly specified)" assigned_class="0 (no)"
molecule=CCOC([O-])=Nc1c[n+](N2CCOCC2)no1 assigned_class="0 (no)"
molecule="CC1(C)C(=O)[C@@H]2O[C@@H]2[C@@]2(C)C1CC(=O)[C@]1(C)C2CC[C@@]2(C)[C@H](c3ccoc3)OC(=O)[C@H]3O[C@]321 (stereo partly specified)" assigned_class="0 (no)"
molecule=Cc1cc(C(C)(C)C)cc(C)c1CC1=NCCN1 assigned_class="0 (no)"
molecule="CC1(C)C(=O)[C@@H]2C[C@@]3(O)C4=CC(=O)O[C@@H](c5ccoc5)[C@]4(C)CCC3[C@@](C)(C2=O)[C@H]1CC(=O)O (stereo partly specified)" assigned_class="0 (no)"
molecule=O=C(O)[C@H](O)[C@@](O)(Cc1ccc(O)cc1)C(=O)O assigned_class="0 (no)"
molecule=CCOc1cccc(C(=O)c2ccc(O)c(O)c2O)c1 assigned_class="1 (yes)"
molecule=CN1CCN(CCCN2c3ccccc3Sc3ccc(C(F)(F)F)cc32)CC1 assigned_class="1 (yes)"
molecule="COc1cc2c(cc1OC)[C@@]13CCN4CC5=CCOC6CC(=O)N2C1[C@H]6[C@H]5C[C@H]43 (stereo partly specified)" assigned_class="0 (no)"
molecule=CC1(C)S[C@@H]2[C@H](NC(=O)Cc3ccccc3)C(=O)N2[C@H]1C(=O)O assigned_class="0 (no)"
molecule="COC1(C)CCC2OC2(C)CCC2C1CC2(C)C (stereo unspecified)" assigned_class="0 (no)"
molecule="NC1C[C@H]1c1ccccc1 (stereo partly specified)" assigned_class="0 (no)"
molecule=CC1(C)C=Cc2cc3ccc(=O)oc3cc2O1 assigned_class="0 (no)"
molecule=COc1ccc([C@H]2COc3c(ccc(O)c3OC)C2)c(OC)c1O assigned_class="0 (no)"
molecule="CCC(C)C(N)C1=NC(C(=O)NC(CC(C)C)C(=O)NC(CCC(=O)O)C(=O)NC(C(=O)NCCCCC2NC(=O)C(CC(N)=O)NC(=O)C(CC(=O)O)NC(=O)C(Cc3cnc[nH]3)NC(=O)C(Cc3ccccc3)NC(=O)C(C(C)CC)NC(=O)C(CCCN)NC2=O)C(C)CC)CS1 (stereo not drawn) (cyclo(DNK([Ile-Glu-Leu-X1])[Orn]IFH); configuration not given here)" assigned_class="0 (no)"
molecule="CC(NCCC(c1ccccc1)c1ccccc1)c1ccccc1 (stereo unspecified)" assigned_class="0 (no)"
molecule=COc1ccc2c(c1OC)OC[C@@H](c1ccc(OC)c(OC)c1OC)C2 assigned_class="0 (no)"
molecule=Cc1cc(C(C)(C)C)c(O)c(C)c1CC1=NCCN1 assigned_class="0 (no)"
molecule=CCN(CC)CCNC(=O)c1cc(Cl)c(N)cc1OC assigned_class="0 (no)"
